System: PBMC (HIV-1-specific CD8+ T cells) of subject AC-06
Experiment: IFN-γ Elispot assay of HIV-1-specific CD8+ T cell responses in subject AC-06
Format: cell-based, human
Conditions: subject AC-06, 12 months after infection
Listing: magnitude of HIV-1-specific CD8+ T cell responses at the single epitope level of selected sequences
assay.readout: magnitude of HIV-1-specific CD8+ T cell responses at the single epitope level (SFC/Million PBMC)

| sequence.data | experimental.system | test.value |
| --- | --- | --- |
| GPGHKARVL [B7-GL9] | PBMC (HIV-1-specific CD8+ T cells) of subject AC-06 | 870 |
| HMYISKKAK [A3-HK9] | PBMC (HIV-1-specific CD8+ T cells) of subject AC-06 | 0 |
| FPRIWLHGL [B7-FL9] | PBMC (HIV-1-specific CD8+ T cells) of subject AC-06 | 0 |
| AVFIHNFKRK [A3-AK10] | PBMC (HIV-1-specific CD8+ T cells) of subject AC-06 | 0 |
| RIRTWKSLVK [A3-RK10] | PBMC (HIV-1-specific CD8+ T cells) of subject AC-06 | 0 |
| KTKPPLPSVKK [A3-KK11] | PBMC (HIV-1-specific CD8+ T cells) of subject AC-06 | 0 |
| QIYPGIKVR [A3-QR9] | PBMC (HIV-1-specific CD8+ T cells) of subject AC-06 | 0 |
| IPRRIRQGL [B7-IL9] | PBMC (HIV-1-specific CD8+ T cells) of subject AC-06 | 70 |
